B1: LINE1-full (parent)
chain: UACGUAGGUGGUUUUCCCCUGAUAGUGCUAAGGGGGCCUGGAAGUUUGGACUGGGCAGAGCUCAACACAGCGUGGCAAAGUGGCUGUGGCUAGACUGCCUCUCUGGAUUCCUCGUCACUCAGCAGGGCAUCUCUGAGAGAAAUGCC

Variants of: B1
Test: self-cleavage, relative activity (ratio to wild type); higher = more cleavage; in vitro, sequencing; the parent is a self-cleaving ribozyme
So basically every entry gets a class from its self-cleavage, ranges being low (below 0.2), moderate (0.2 to below 0.6), high (0.6 or more)

>  <change>
U39C A67U

>  <category_label>
low

$$$$
>  <change>
A50G A79G

>  <category_label>
high

$$$$
>  <change>
A57C A121U

>  <category_label>
low

$$$$
>  <change>
U96G A136G

>  <category_label>
low

$$$$
>  <change>
A24G U45G

>  <category_label>
low

$$$$
>  <change>
A64C U100C

>  <category_label>
high

$$$$
>  <change>
U87G A142G

>  <category_label>
moderate

$$$$
>  <change>
A64C A78U

>  <category_label>
moderate

$$$$
>  <change>
U29C A124U

>  <category_label>
high

$$$$
>  <change>
U20A A69G

>  <category_label>
moderate

$$$$
